Where do these numbers come from? They come from patent EP0233461B2.

# Test system: human basophils
# assay_remarks: Inhibition of histamine release from immunologically stimulated human basophils
# Format: cell-based
# details: Homo sapiens, concentration causing 50% inhibition of histamine release, by linear regression; active if IC50 ≦ 48 µM
# Method: The blood is allowed to sediment at room temperature in two 50 ml polycarbonate centrifuge tubes until a sharp interface develops between the red cells and plasma (60-90 minutes). The plasma (top) layer from each tube is withdrawn by pipet and transferred to respective 50 ml polycarbonate tubes. The plasma is centrifuged for 8 minutes at 110X G at 4°C. […]
metric: IC50 (nM)

Cc1cc(C)cc(Nc2nccc(-c3ccccn3)n2)c1 [sulfate]
600
Cc1cc(C)cc(Nc2nccc(-c3cccnc3)n2)c1 [sulfate]
3000
c1ccc(Nc2nccc(-c3cccnc3)n2)cc1 [sulfate]
3000
